Reference source for all entries: patent US10519119B2

Tested on: breast cancer cell line MCF-7
experiment: MTT test of activity in inhibiting breast cancer cell line MCF-7
Assay type: cell-based, human
condition_notes: Homo sapiens, MCF7; MCF-7 cells, MTT method, same procedure as A549
pIC50: −log10 of the molar value.
Would you mind labelling by pIC50? At or over 4 is label 1, under is label 0.

substance_smiles	category_label
COc1ccc(-c2cc(COC(=O)c3cc(Cl)cnc3Cl)on2)cc1	label 0

Exam item: Decide: pIC50 of COc1ccc(-c2cc(COC(=O)c3ccc(C(F)(F)F)nc3)on2)cc1 >= 4?
Marked response: label 0

Exam item: Say whether Cc1ccc(-c2cc(COC(=O)c3ccc(C(F)(F)F)nc3C)on2)cc1 shows pIC50 of 4 or more.
Marked response: label 0

Exam item: In plain terms: is recorded pIC50 at least 4 for O=C(OCc1cc(-c2ccc(Br)cc2)no1)c1ccc(C(F)(F)F)nc1 ?
Marked response: label 1

---

System: human lung cancer cell line A549
experiment: MTT test of activity in inhibiting human lung cancer cell A549
Format: cell-based
condition_notes: Homo sapiens; A549 cells, MTT method, cultivation 24 h with drug, OD at 595 nm
Binary call on IC50 with cut-off 200 µM: strictly below means MET, and equality or higher means NOT MET.

Illustrative cases are given below, each with its answer.
substance_smiles	category_label
Cc1nc(C(F)(F)F)ccc1C(=O)OCc1cc(-c2ccc(Cl)cc2)no1	NOT MET
O=C(OCc1cc(-c2ccc(Cl)cc2)no1)c1cc(Cl)cnc1Cl	MET
COc1ccc(-c2cc(COC(=O)c3ccc(C(F)(F)F)nc3)on2)cc1	MET
COc1ccc(-c2cc(COC(=O)c3cc(Cl)cnc3Cl)on2)cc1	MET

Exam item: Hello, is IC50 of the following compound strictly smaller than 200 µM? O=C(OCc1cc(-c2ccc(Cl)cc2)no1)c1ccc(Oc2ccccc2)nc1
Marked response: NOT MET

Exam item: Determine if O=C(OCc1cc(-c2ccc(Br)cc2)no1)c1ccc(C(F)(F)F)nc1 shows IC50 strictly lower than 200 µM.
Marked response: NOT MET
